- Tested on: U2OS
- Experimental Protocol: Multiplex assay against U2OS
- Format: toxicity, cell-based
- Measurement Parameters: human, 12 h, 10 µM, compound concentration 10 uM, replicate 1
Assay Metric: Population Pyknosed Nuclei (%)
A number alone suffices; assume %.

Please review the following examples before continuing.
compound=Cc1c(CC(=O)O)c2cccnc2n1Cc1ccc(S(C)(=O)=O)cc1C(F)(F)F value_reported=7
compound=CN(C)C(=O)Cn1cc(-c2ccc(-c3cncc4ccccc34)cc2)cn1 value_reported=10
compound=Cc1cccc(NC(=O)CN2CCC(c3ccccn3)CC2)c1.Cl.Cl value_reported=10
compound=CC(=O)Nc1cccc2c1c(Sc1ccc(Cl)cc1)c(C)n2CC(=O)O value_reported=7

Would you kindly look at the next entry?
// query Population Pyknosed Nuclei (%) value for entry CC(C)c1noc(N2CCC(COc3ccc(-c4ccc(S(C)(=O)=O)cc4)nc3)CC2)n1 7

---

- Tested on: U2OS
- Experimental Protocol: Multiplex assay against U2OS
- Format: toxicity, cell-based
- Measurement Parameters: human, 12 h, 1 µM, compound concentration 1 uM, replicate 1
Assign T to entries whose Population Tubulin-Different-Phenotype (%) meets or exceeds 5%; assign F to the rest.

Worked set:
compound="CCCCCC(O)/C=C/[C@H]1C(=O)CC(O)C1C/C=C\\CCCC(=O)O (some centres not stated)" study_system=U2OS assigned_category=F
compound=CN1CCN(c2cc(-c3ccccc3)nc(N)n2)CC1 study_system=U2OS assigned_category=F
compound="O=C(NCCN1CCC(n2c(=O)[nH]c3cc(Cl)ccc32)CC1)c1ccc(F)cc1 [HALOPEMIDE]" study_system=U2OS assigned_category=F

Check the entry CC(C)(C)c1cc(NC(=O)Nc2ccc(-c3cn4c(n3)sc3cc(OCCN5CCOCC5)ccc34)cc2)no1 : does Population Tubulin-Different-Phenotype (%) equal or exceed 5%? T

Continue with CC(C)c1noc(N2CCC(COc3ccc(-c4ccc(S(C)(=O)=O)cc4)nc3)CC2)n1 F

---

- System: Fibroblast
- Experimental Protocol: Multiplex assay against human fibroblast
- Type: toxicity, cell-based
- Measurement Parameters: 48 h, 10 µM, compound concentration 10 uM, replicate 2
Mark Criterion met only when Population Hoechst High Intensity Objects (%) stays strictly below 5%. Values equal to the cut-off are Criterion not met.

Worked set:
compound=COc1ccccc1N1CCN(C[C@@H](C(=O)NC(C)(C)C)c2ccccc2)CC1.Cl.Cl assigned_category="Criterion met"
compound=NCCc1cn(S(=O)(=O)c2c(Cl)nc3sccn23)c2ccccc12.O=C(O)C(=O)O assigned_category="Criterion met"
compound=Cc1cnc(-c2cc(N3CCN(C(=O)CCS(C)(=O)=O)CC3)ncc2Cl)c(C)c1 assigned_category="Criterion met"
compound="CCCCCC(O)/C=C/[C@H]1C(=O)CC(O)C1C/C=C\\CCCC(=O)O (some centres not stated)" assigned_category="Criterion met"
compound=COc1cccc2c1c(NS(=O)(=O)c1ccc(Cl)s1)nn2Cc1cccc(CNC(=O)C(C)(C)O)c1 assigned_category="Criterion not met"

Does Cl.N=C(N)NC(=O)Cc1c(Cl)cccc1Cl [GUANFACINE HYDROCHLORIDE] have Population Hoechst High Intensity Objects (%) strictly under 5%? Criterion not met

Continue with N#Cc1c(Oc2cccc(OS(=O)(=O)CCCC(F)(F)F)c2)cccc1C(F)(F)F Criterion met

Continue with Cc1noc(-c2ccc(-c3ccc(CC(=O)O)cc3)cc2)c1NC(=O)O[C@H](C)c1ccccc1Cl Criterion met

---

- Tested on: Fibroblast
- Experimental Protocol: Multiplex assay against human fibroblast
- Type: toxicity, cell-based
- Measurement Parameters: 48 h, 1 µM, compound concentration 1 uM, replicate 1
Assay Metric: Population Mitotic Cells (%)
A number alone suffices; assume %.

compound=C[C@H](N)COC(=O)[C@@H](CCCCN)NC(=O)Cc1c(-c2ccc3ccccc3c2)[nH]c2c1ccc1ccccc12 value_reported=27
compound=CCCOc1ccc2[nH]cc(C3=CCNCC3)c2n1.Cl value_reported=30
compound=CN1CCN(c2cc(-c3ccccc3)nc(N)n2)CC1 value_reported=30
compound="CN[C@@H](C)C(=O)N[C@H](C(=O)N1CCC[C@H]1C(=O)Nc1snnc1-c1ccccc1)C1CCCCC1 [GDC-0152]" value_reported=52
compound="O=C(NCCN1CCC(n2c(=O)[nH]c3cc(Cl)ccc32)CC1)c1ccc(F)cc1 [HALOPEMIDE]" value_reported=47
compound="CC(=O)Nc1cccc2c1c(Sc1ccc(Cl)cc1)c(C)n2CC(=O)O [AZD1981]" value_reported=45

Requested read-out Population Mitotic Cells (%), target or system Fibroblast, entry CCc1cc2cc(NS(=O)(=O)c3ccc(C#N)cc3)ccc2n(CC)c1=O 47

Continue with O=C1[C@H](Cc2ccc(O)cc2)N2C(=O)CCN(C(=O)NCc3ccccc3)[C@H]2CN1Cc1cccc2ccccc12 37

Continue with CCCCC1=NC2(CCCC2)C(=O)N1Cc1ccc(-c2ccccc2-c2nnn[nH]2)cc1 [IRBESARTAN] 40

Continue with CCCCCC(O)/C=C/[C@H]1C(=O)CC(O)C1C/C=C\CCCC(=O)O (stereo not given in full) 50

---

- System: HEK-293T
- Experimental Protocol: Multiplex assay against HEK293T
- Format: toxicity, cell-based
- Measurement Parameters: human, 48 h, 1 µM, compound concentration 1 uM, replicate 2
List of Population Healthy Nuclei (%) values.
A number alone suffices; assume %.

Please review the following examples before continuing.
compound=CN1CCN(c2cc(-c3ccccc3)nc(N)n2)CC1 value_reported=80
compound=N#Cc1cc(F)cc(-c2nc(-c3ccc(F)cn3)no2)c1 value_reported=81
compound="COC[C@@H](c1ccc(C(F)(F)F)cc1)N1CCN(C2(C)CCN(C(=O)c3c(C)ncnc3C)CC2)C[C@@H]1C.O=C(O)/C=C\\C(=O)O [VICRIVIROC MALEATE]" value_reported=81
compound="CC(=O)Nc1cccc2c1c(Sc1ccc(Cl)cc1)c(C)n2CC(=O)O [AZD1981]" value_reported=79

// query Population Healthy Nuclei (%) value for entry CCc1cc2cc(NS(=O)(=O)c3ccc(C#N)cc3)ccc2n(CC)c1=O 79

Continue with CC(C)(C)c1cc(NC(=O)Nc2ccc(-c3cn4c(n3)sc3cc(OCCN5CCOCC5)ccc34)cc2)no1 [QUIZARTINIB] 82

Continue with C[C@H](N)COC(=O)[C@@H](CCCCN)NC(=O)Cc1c(-c2ccc3ccccc3c2)[nH]c2c1ccc1ccccc12 79

---

- Tested on: HEK-293T
- Experimental Protocol: Multiplex assay against HEK293T
- Type: toxicity, cell-based
- Measurement Parameters: human, 48 h, 10 µM, compound concentration 10 uM, replicate 2
List of Population Pyknosed Nuclei (%) values.
Remember to put the unit after the number in your answer.

Please review the following examples before continuing.
compound=N#Cc1cc(F)cc(-c2nc(-c3ccc(F)cn3)no2)c1 value_reported=5%
compound=CC[C@@H](C)Nc1nc(C)nc2c(-c3ccc(OC)nc3C)c(C)nn12 value_reported=17%
compound="COC[C@@H](c1ccc(C(F)(F)F)cc1)N1CCN(C2(C)CCN(C(=O)c3c(C)ncnc3C)CC2)C[C@@H]1C.O=C(O)/C=C\\C(=O)O [VICRIVIROC MALEATE]" value_reported=15%
compound=O=C(CCCc1ccccc1)Nc1nc2ccccc2c(=O)s1 value_reported=9%
compound=C[C@H](N)COC(=O)[C@@H](CCCCN)NC(=O)Cc1c(-c2ccc3ccccc3c2)[nH]c2c1ccc1ccccc12 value_reported=6%

Would you kindly look at the next entry?
// query Population Pyknosed Nuclei (%) value for entry O=C(NCCN1CCC(n2c(=O)[nH]c3cc(Cl)ccc32)CC1)c1ccc(F)cc1 [HALOPEMIDE] 11%

---

- Tested on: HEK-293T
- Experimental Protocol: Multiplex assay against HEK293T
- Assay type: toxicity, cell-based
- Measurement Parameters: human, 48 h, 10 µM, compound concentration 10 uM, replicate 2
Assay Metric: Population Hoechst High Intensity Objects (%)
A number alone suffices; assume %.

Please review the following examples before continuing.
molecule=CCCCC(=O)N(Cc1ccc(-c2ccccc2-c2nnn[nH]2)cc1)[C@H](C(=O)O)C(C)C unit_tag=% value_reported=2
molecule=Cc1cnc(-c2cc(N3CCN(C(=O)CCS(C)(=O)=O)CC3)ncc2Cl)c(C)c1 unit_tag=% value_reported=3
molecule="COC[C@@H](c1ccc(C(F)(F)F)cc1)N1CCN(C2(C)CCN(C(=O)c3c(C)ncnc3C)CC2)C[C@@H]1C.O=C(O)/C=C\\C(=O)O [VICRIVIROC MALEATE]" unit_tag=% value_reported=11
molecule=COc1ccccc1N1CCN(C[C@@H](C(=O)NC(C)(C)C)c2ccccc2)CC1.Cl.Cl unit_tag=% value_reported=5
molecule=CCc1cc2cc(NS(=O)(=O)c3ccc(C#N)cc3)ccc2n(CC)c1=O unit_tag=% value_reported=10

Would you kindly look at the next entry?
// query Population Hoechst High Intensity Objects (%) value for entry N#Cc1c(Oc2cccc(OS(=O)(=O)CCCC(F)(F)F)c2)cccc1C(F)(F)F 24

Ref: ChEMBL document CHEMBL5058577
